Experiment: in vivo
Conditions: female, SCID, mouse, SW620 tumor, po
METRIC: Tmax (h)
Report the figure in h without appending any unit label.

Tmax reading for CCC1(O)C(=O)OCc2c1cc1n(c2=O)Cc2cc3cc4c(cc3nc2-1)OCO4 (stereo not shown) : 1

###

Assay: Liver microsome stability
Settings: both, human, microsomes, CLint (intrinsic clearance), human liver microsome; bound
METRIC: microsomal CLint at 0.5 μM

microsomal CLint at 0.5 μM reading for CCC1(O)C(=O)OCc2c1cc1n(c2=O)Cc2cc3cc4c(cc3nc2-1)OCO4 (stereo not shown) [FL118] : < 23.1 µL/min/mg

###

Tested on: P-gp
Assay: in vitro
Settings: human, Caco-2, pH 7.4, Recovery (%), Caco-2; A-to-B; without valspodar
METRIC: recovery at 120 min, 1 µM (%)
Report the figure in % without appending any unit label.

recovery at 120 min, 1 µM reading for CCC1(O)C(=O)OCc2c1cc1n(c2=O)Cc2cc3cc4c(cc3nc2-1)OCO4 (stereo not shown) : 43

###

Experiment: in vitro
Conditions: both, human, whole blood (sodium heparin), pH 7.4
METRIC: blood plasma ratio at 60 min, 1 μM
Provide a numeric answer; units are not to be included.

blood plasma ratio at 60 min, 1 μM reading for NS(=O)(=O)c1cc(C2(O)NC(=O)c3ccccc32)ccc1Cl (stereo not shown) [chlorthalidone] : 8.73

###

Experiment: in vivo
Details: female, SCID, mouse, SW620 tumor, po
METRIC: half-life (h)
Report the figure in h without appending any unit label.

half-life reading for CCC1(O)C(=O)OCc2c1cc1n(c2=O)Cc2cc3cc4c(cc3nc2-1)OCO4 (stereo not shown) [FL118] : 2.99

###

Experiment: in vivo
Conditions: SCID, mouse, plasma, iv
METRIC: half-life (h)
Report the figure in h without appending any unit label.

half-life reading for CCC1(O)C(=O)OCc2c1cc1n(c2=O)Cc2cc3cc4c(cc3nc2-1)OCO4 (stereo not shown) : 1.79

###

Target: ABCG2/BCRP (Homo sapiens, UniProt Q9UNQ0)
Sequence (Q9UNQ0 whole entry): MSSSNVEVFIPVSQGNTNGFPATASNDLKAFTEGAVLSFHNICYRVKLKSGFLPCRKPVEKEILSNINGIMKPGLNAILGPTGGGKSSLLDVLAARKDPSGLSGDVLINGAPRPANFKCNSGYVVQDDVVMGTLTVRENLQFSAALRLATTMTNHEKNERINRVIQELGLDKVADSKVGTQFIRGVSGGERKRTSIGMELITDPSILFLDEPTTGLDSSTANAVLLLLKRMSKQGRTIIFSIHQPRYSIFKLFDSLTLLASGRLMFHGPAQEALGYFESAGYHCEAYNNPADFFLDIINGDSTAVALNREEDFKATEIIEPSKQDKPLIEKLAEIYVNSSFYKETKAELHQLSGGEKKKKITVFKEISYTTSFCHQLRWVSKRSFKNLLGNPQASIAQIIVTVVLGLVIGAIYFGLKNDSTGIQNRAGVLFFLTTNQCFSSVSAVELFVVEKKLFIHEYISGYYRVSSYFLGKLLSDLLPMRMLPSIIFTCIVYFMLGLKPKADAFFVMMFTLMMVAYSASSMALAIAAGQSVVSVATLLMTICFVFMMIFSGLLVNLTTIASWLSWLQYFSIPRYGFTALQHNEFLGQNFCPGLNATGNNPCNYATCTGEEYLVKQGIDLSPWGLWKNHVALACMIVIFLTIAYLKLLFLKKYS
Test: in vitro
Settings: Caco-2, pH 7.4, Recovery (%), Caco-2, A-to-B, second FL118 entry (presumably with Ko143)
METRIC: recovery at 120 min, 1 µM (%)
Report the figure in % without appending any unit label.

recovery at 120 min, 1 µM reading for CCC1(O)C(=O)OCc2c1cc1n(c2=O)Cc2cc3cc4c(cc3nc2-1)OCO4 (stereo not shown) : 57

###

Biological target: hERG (Homo sapiens, UniProt Q12809)
Sequence (Q12809 whole entry): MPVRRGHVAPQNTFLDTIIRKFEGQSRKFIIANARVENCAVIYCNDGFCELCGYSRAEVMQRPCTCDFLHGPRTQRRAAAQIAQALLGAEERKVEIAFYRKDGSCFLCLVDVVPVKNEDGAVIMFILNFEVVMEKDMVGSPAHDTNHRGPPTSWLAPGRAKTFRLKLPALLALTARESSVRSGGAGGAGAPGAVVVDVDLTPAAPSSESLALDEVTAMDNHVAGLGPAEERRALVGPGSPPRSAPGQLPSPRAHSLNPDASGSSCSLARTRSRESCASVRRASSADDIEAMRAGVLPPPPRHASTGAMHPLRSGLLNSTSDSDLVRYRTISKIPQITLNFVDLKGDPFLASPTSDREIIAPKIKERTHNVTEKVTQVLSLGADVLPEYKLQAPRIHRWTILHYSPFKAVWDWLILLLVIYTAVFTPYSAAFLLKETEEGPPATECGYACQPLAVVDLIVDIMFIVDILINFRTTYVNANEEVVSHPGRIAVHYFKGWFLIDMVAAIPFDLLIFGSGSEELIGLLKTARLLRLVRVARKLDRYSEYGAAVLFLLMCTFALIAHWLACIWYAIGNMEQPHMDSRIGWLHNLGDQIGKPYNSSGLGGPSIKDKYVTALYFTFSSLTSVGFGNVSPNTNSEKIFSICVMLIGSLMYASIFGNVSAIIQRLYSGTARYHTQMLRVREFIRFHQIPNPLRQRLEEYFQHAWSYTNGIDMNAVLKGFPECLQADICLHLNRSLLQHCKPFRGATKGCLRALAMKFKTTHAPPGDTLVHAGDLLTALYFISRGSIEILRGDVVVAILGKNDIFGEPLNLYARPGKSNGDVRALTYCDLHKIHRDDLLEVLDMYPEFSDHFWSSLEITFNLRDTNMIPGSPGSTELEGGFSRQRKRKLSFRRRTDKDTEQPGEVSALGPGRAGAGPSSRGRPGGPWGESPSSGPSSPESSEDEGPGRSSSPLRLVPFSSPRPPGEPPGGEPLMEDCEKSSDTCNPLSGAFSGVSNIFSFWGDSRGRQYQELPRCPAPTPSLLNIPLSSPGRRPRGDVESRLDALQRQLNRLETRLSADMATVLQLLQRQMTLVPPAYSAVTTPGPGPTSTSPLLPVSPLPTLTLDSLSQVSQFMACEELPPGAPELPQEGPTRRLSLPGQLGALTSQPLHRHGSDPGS
Assay: in vitro
Conditions: human, pH 7.2
METRIC: inhibition at 300 s, 0.1 µM
Write the numeric value and follow it with the unit.

Record for CCC1(O)C(=O)OCc2c1cc1n(c2=O)Cc2cc3cc4c(cc3nc2-1)OCO4 (stereo not shown) [FL118] under target or system hERG (Homo sapiens, UniProt Q12809): inhibition at 300 s, 0.1 µM reported as -5.2%

###

Tested on: CYP3A
Assay: in vitro
Conditions: human, microsomes, pH 7.4
METRIC: inhibition at 1 µM (%)
Report the figure in % without appending any unit label.

Record for CCC1(O)C(=O)OCc2c1cc1n(c2=O)Cc2cc3cc4c(cc3nc2-1)OCO4 (stereo not shown) [FL118] under target or system CYP3A: inhibition at 1 µM reported as 0

###

Test: Hepatocyte stability
Conditions: both, human, hepatocytes, pH 7.4, Half-life, cryopreserved human hepatocytes; expressed as > the longest incubation time (120 min)
METRIC: half-life at 0.5 μM

half-life at 0.5 μM reading for CCC1(O)C(=O)OCc2c1cc1n(c2=O)Cc2cc3cc4c(cc3nc2-1)OCO4 (stereo not shown) [FL118] : > 120 min

###

Assay: in vivo
Details: female, SCID, mouse, plasma, po
METRIC: Tmax (min)
Report the figure in min without appending any unit label.

Tmax reading for CCC1(O)C(=O)OCc2c1cc1n(c2=O)Cc2cc3cc4c(cc3nc2-1)OCO4 (stereo not shown) : 30

###

Biological target: USP2a (Homo sapiens)
Sequence (O75604 1-605): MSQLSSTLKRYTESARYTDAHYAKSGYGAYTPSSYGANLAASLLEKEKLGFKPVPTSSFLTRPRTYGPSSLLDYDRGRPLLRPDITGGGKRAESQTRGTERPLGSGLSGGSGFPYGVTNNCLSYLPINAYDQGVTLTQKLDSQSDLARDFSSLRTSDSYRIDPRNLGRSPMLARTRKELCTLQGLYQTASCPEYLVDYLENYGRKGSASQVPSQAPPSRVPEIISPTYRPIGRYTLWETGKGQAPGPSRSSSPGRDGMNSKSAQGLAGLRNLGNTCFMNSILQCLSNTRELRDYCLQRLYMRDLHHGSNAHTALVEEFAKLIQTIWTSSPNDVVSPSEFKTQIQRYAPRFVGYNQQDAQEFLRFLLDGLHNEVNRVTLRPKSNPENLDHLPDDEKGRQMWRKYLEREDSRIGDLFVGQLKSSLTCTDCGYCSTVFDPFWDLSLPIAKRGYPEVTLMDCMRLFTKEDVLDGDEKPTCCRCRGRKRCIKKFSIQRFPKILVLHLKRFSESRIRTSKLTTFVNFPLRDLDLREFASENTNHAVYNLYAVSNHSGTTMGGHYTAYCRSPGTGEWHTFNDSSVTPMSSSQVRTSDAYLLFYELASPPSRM
METRIC: Kd (nM)
Report the figure in nM without appending any unit label.

Record for CCC1(O)C(=O)OCc2c1cc1n(c2=O)Cc2cc3cc4c(cc3nc2-1)OCO4 (stereo not shown) under target or system USP2a (Homo sapiens): Kd reported as 52.3
